The measured values listed here are drawn from PubChem BioAssay AID1963858.

System: HOP-62 multicell spheroids with HUVEC/MSC, viability
Assay: Anticancer human tumor HOP-62 cell line growth inhibition [KRAS2];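 further: viability read after a week of compound exposure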;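 on viability, T/C: 100% = DMSO vehicle-treated spheroids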
Conditions: second compound 0.316 µM; first compound 0.01 µM; stronger effect = lower value
List of viability, T/C values.
Write the value in % as a bare number.

Some solved entries appear below for comparison.
COMPOUND	viability, T/C / %
CC(=O)Nc1cccc(-n2c(=O)n(C3CC3)c(=O)c3c(Nc4ccc(I)cc4F)n(C)c(=O)c(C)c32)c1 + CC1OCC2(CCN(c3cnc(Sc4ccnc(N)c4Cl)c(N)n3)CC2)C1N	22.9
CC(=O)OC12COC1CC(O)C1(C)C(=O)C(O)C3=C(C)C(OC(=O)C(O)C(NC(=O)OC(C)(C)C)c4ccccc4)CC(O)(C(OC(=O)c4ccccc4)C21)C3(C)C (stereo not given) + C=CC(=O)N1CCN(c2nc(=O)n(-c3c(C)ccnc3C(C)C)c3nc(-c4c(O)cccc4F)c(F)cc23)C(C)C1	29.5

Query: Entry CN(C)C/C=C/C(=O)Nc1cc2c(Nc3ccc(F)c(Cl)c3)ncnc2cc1O[C@H]1CCOC1 + CC1OCC2(CCN(c3cnc(Sc4ccnc(N)c4Cl)c(N)n3)CC2)C1N has what viability, T/C?
Response: 86.2

Query: Entry CC(=O)Nc1cccc(-n2c(=O)n(C3CC3)c(=O)c3c(Nc4ccc(I)cc4F)n(C)c(=O)c(C)c32)c1 + C=CC(=O)N1CCN(c2nc(OCC3CCCN3C)nc3c2CCN(c2cccc4cccc(C)c24)C3)CC1CC#N has what viability, T/C?
Response: 15.7

Query: Entry CC1COCCN1c1cc(-c2ccnn2C)c2ccnc(-c3ccn[nH]3)c2n1 (stereo not given) + CC1OCC2(CCN(c3cnc(Sc4ccnc(N)c4Cl)c(N)n3)CC2)C1N has what viability, T/C?
Response: 87.3

* * *

List of pIC50 values.
Tested on: HOP-62 multicell spheroids with HUVEC/MSC, viability
Assay: Anticancer human tumor HOP-62 cell line growth inhibition [KRAS2];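 further: viability read after a week of compound exposure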
Details: curve of first compound; second compound 0.316 µM
pIC50: −log10 of the molar value.

Some solved entries appear below for comparison.
COMPOUND	pIC50
CC1COCCN1c1cc(-c2ccnn2C)c2ccnc(-c3ccn[nH]3)c2n1 (stereo not drawn) + COc1cc2nc(C)nc(NC(C)c3cc(N)cc(C(F)(F)F)c3)c2cc1OC1CCOC1	7.16
CN(C)C/C=C/C(=O)Nc1cc2c(Nc3ccc(F)c(Cl)c3)ncnc2cc1O[C@H]1CCOC1 + CC1OCC2(CCN(c3cnc(Sc4ccnc(N)c4Cl)c(N)n3)CC2)C1N	< 7.00

Read the next record carefully.
Query: Entry CN(C)C/C=C/C(=O)Nc1cc2c(Nc3ccc(F)c(Cl)c3)ncnc2cc1O[C@H]1CCOC1 + COc1cc2nc(C)nc(NC(C)c3cc(N)cc(C(F)(F)F)c3)c2cc1OC1CCOC1 has what pIC50?
Response: < 7.00

* * *

Test system: HOP-62 multicell spheroids with HUVEC/MSC, viability
Assay: Anticancer human tumor HOP-62 cell line growth inhibition [KRAS2];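 further: viability read after a week of compound exposure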
Conditions: curve of first compound; second compound 1 µM
Text: Multicellular complex tumor spheroid response to RAS pathway inhibitors in combination with a targeted agents in patient-derived cell lines with oncogenic KRAS variants from multiple cancer types A high-throughput screen of multi-cell type tumor spheroids was designed to identify active combinations of targeted small molecules and KRAS pathway inhibitors. […] Compounds. […] If the clinical Cmax for an agent had not been determined, the highest concentration tested was 10 microM. […]
pIC50: −log10 of the molar value.
READOUT_NAME: pIC50

COMPOUND	MEASURED
CC1OCC2(CCN(c3cnc(Sc4ccnc(N)c4Cl)c(N)n3)CC2)C1N (stereo unspecified) + COc1cc2nc(C)nc(NC(C)c3cc(N)cc(C(F)(F)F)c3)c2cc1OC1CCOC1	5.91
COc1cc(Nc2ncc3c(n2)-c2ccc(Cl)cc2C(c2c(F)cccc2OC)=NC3)ccc1C(=O)O + COc1cc2nc(C)nc(NC(C)c3cc(N)cc(C(F)(F)F)c3)c2cc1OC1CCOC1	> 7.50
CC1COCCN1c1cc(-c2ccnn2C)c2ccnc(-c3ccn[nH]3)c2n1 (stereo unspecified) + C=CC(=O)N1CCN(c2nc(OCC3CCCN3C)nc3c2CCN(c2cccc4cccc(C)c24)C3)CC1CC#N	> 8.00
CC(=O)OC12COC1CC(O)C1(C)C(=O)C(O)C3=C(C)C(OC(=O)C(O)C(NC(=O)OC(C)(C)C)c4ccccc4)CC(O)(C(OC(=O)c4ccccc4)C21)C3(C)C (stereo unspecified) + C=CC(=O)N1CCN(c2nc(=O)n(-c3c(C)ccnc3C(C)C)c3nc(-c4c(O)cccc4F)c(F)cc23)C(C)C1	> 8.00
Cn1ncnc1[C@H]1c2n[nH]c(=O)c3cc(F)cc(c23)N[C@@H]1c1ccc(F)cc1 + CC1OCC2(CCN(c3cnc(Sc4ccnc(N)c4Cl)c(N)n3)CC2)C1N	8.86

Query: Entry CC(=O)OC12COC1CC(O)C1(C)C(=O)C(O)C3=C(C)C(OC(=O)C(O)C(NC(=O)OC(C)(C)C)c4ccccc4)CC(O)(C(OC(=O)c4ccccc4)C21)C3(C)C (stereo unspecified) + C=CC(=O)N1CCN(c2nc(OCC3CCCN3C)nc3c2CCN(c2cccc4cccc(C)c24)C3)CC1CC#N has what pIC50?
Response: > 8.00

* * *

System: HOP-62 multicell spheroids with HUVEC/MSC, viability
Assay: Anticancer human tumor HOP-62 cell line growth inhibition [KRAS2];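 further: viability read after a week of compound exposure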
Details: curve of first compound; second compound 0.316 µM
From the text: Multicellular complex tumor spheroid response to RAS pathway inhibitors in combination with a targeted agents in patient-derived cell lines with oncogenic KRAS variants from multiple cancer types A high-throughput screen of multi-cell type tumor spheroids was designed to identify active combinations of targeted small molecules and KRAS pathway inhibitors. […] Compounds. […] If the clinical Cmax for an agent had not been determined, the highest concentration tested was 10 microM. […]
READOUT_NAME: pIC50
As a rule, pIC50 stands for the negative log10 of the concentration, concentration in M.

Query: I'm curious: which pIC50 was measured for Cn1nccc1Nc1nccc(-c2cc3c(s2)C(C)(C)N(CCN2CCOCC2)C3=O)n1 + C=CC(=O)N1CCN(c2nc(=O)n(-c3c(C)ccnc3C(C)C)c3nc(-c4c(O)cccc4F)c(F)cc23)C(C)C1 tested on HOP-62 multicell spheroids with HUVEC/MSC, viability?
Response: 6.60

Query: I'm curious: which pIC50 was measured for CCNC(=O)CC1N=C(c2ccc(Cl)cc2)c2cc(OC)ccc2-n2c(C)nnc21 (stereo not given) + C=CC(=O)N1CCN(c2nc(=O)n(-c3c(C)ccnc3C(C)C)c3nc(-c4c(O)cccc4F)c(F)cc23)C(C)C1 tested on HOP-62 multicell spheroids with HUVEC/MSC, viability?
Response: 7.14

* * *

Tested on: HOP-62 multicell spheroids with HUVEC/MSC, viability
Test: Anticancer human tumor HOP-62 cell line growth inhibition [KRAS2];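 further: viability read after a week of compound exposure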;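 on viability, T/C: 100% = DMSO vehicle-treated spheroids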
Settings: second compound 0.316 µM; first compound 0.316 µM; stronger effect = lower value
Description: Multicellular complex tumor spheroid response to RAS pathway inhibitors in combination with a targeted agents in patient-derived cell lines with oncogenic KRAS variants from multiple cancer types A high-throughput screen of multi-cell type tumor spheroids was designed to identify active combinations of targeted small molecules and KRAS pathway inhibitors. […] Compounds. […] If the clinical Cmax for an agent had not been determined, the highest concentration tested was 10 microM. […]
Lab note: anything with viability, T/C below 40% is marked MET; values at 40% or higher are marked NOT MET.

Look over these answered cases.
MOLECULE	ASSIGNED_CATEGORY
Cn1nccc1Nc1nccc(-c2cc3c(s2)C(C)(C)N(CCN2CCOCC2)C3=O)n1 + C=CC(=O)N1CCN(c2nc(=O)n(-c3c(C)ccnc3C(C)C)c3nc(-c4c(O)cccc4F)c(F)cc23)C(C)C1	NOT MET
COc1cc2nccc(Oc3ccc(NC(=O)C4(C(=O)Nc5ccc(F)cc5)CC4)cc3)c2cc1OC + CNCc1ccccc1-c1csc(C(C)Nc2nc(C)nc3cc(OC)c(OC)cc23)c1	NOT MET
CC1COCCN1c1cc(-c2ccnn2C)c2ccnc(-c3ccn[nH]3)c2n1 (stereo not given) + CNCc1ccccc1-c1csc(C(C)Nc2nc(C)nc3cc(OC)c(OC)cc23)c1	MET

Query: Decide: viability, T/C of COC(=O)c1ccc2c(C(=Nc3ccc(N(C)C(=O)CN4CCN(C)CC4)cc3)c3ccccc3)c(O)[nH]c2c1 + CC1OCC2(CCN(c3cnc(Sc4ccnc(N)c4Cl)c(N)n3)CC2)C1N strictly below 40%?
Response: MET

Query: Decide: viability, T/C of CCNC(=O)CC1N=C(c2ccc(Cl)cc2)c2cc(OC)ccc2-n2c(C)nnc21 (stereo not given) + CNCc1ccccc1-c1csc(C(C)Nc2nc(C)nc3cc(OC)c(OC)cc23)c1 strictly below 40%?
Response: NOT MET

* * *

Test system: HOP-62 multicell spheroids with HUVEC/MSC, viability
Experiment: Anticancer human tumor HOP-62 cell line growth inhibition [KRAS2]; active means viability on the fitted dose curve at most 10% of control; inactive means the rest;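 further: viability read after a week of compound exposure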
Details: second compound 3.16 µM; first compound 0.0316 µM
Pick one: class 1 for active, class 0 for inactive

Look over these answered cases.
MOLECULE	EXPERIMENTAL_TARGET	ASSIGNED_CATEGORY
CC1OCC2(CCN(c3cnc(Sc4ccnc(N)c4Cl)c(N)n3)CC2)C1N (stereo not given) + C=CC(=O)N1CCN(c2nc(=O)n(-c3c(C)ccnc3C(C)C)c3nc(-c4c(O)cccc4F)c(F)cc23)C(C)C1	HOP-62 multicell spheroids with HUVEC/MSC, viability	class 0
COc1cc2nccc(Oc3ccc(NC(=O)C4(C(=O)Nc5ccc(F)cc5)CC4)cc3)c2cc1OC + CNCc1ccccc1-c1csc(C(C)Nc2nc(C)nc3cc(OC)c(OC)cc23)c1	HOP-62 multicell spheroids with HUVEC/MSC, viability	class 1
CC1OCC2(CCN(c3cnc(Sc4ccnc(N)c4Cl)c(N)n3)CC2)C1N (stereo not given) + C=CC(=O)N1CCN(c2nc(OCC3CCCN3C)nc3c2CCN(c2cccc4cccc(C)c24)C3)CC1CC#N	HOP-62 multicell spheroids with HUVEC/MSC, viability	class 1
COc1cc2nccc(Oc3ccc(NC(=O)C4(C(=O)Nc5ccc(F)cc5)CC4)cc3)c2cc1OC + COc1cc2nc(C)nc(NC(C)c3cc(N)cc(C(F)(F)F)c3)c2cc1OC1CCOC1	HOP-62 multicell spheroids with HUVEC/MSC, viability	class 0
CC(=O)Nc1cccc(-n2c(=O)n(C3CC3)c(=O)c3c(Nc4ccc(I)cc4F)n(C)c(=O)c(C)c32)c1 + CNCc1ccccc1-c1csc(C(C)Nc2nc(C)nc3cc(OC)c(OC)cc23)c1	HOP-62 multicell spheroids with HUVEC/MSC, viability	class 1

Query: Each molecule tested received a call. Report the one for O=C(c1cc(Cc2n[nH]c(=O)c3ccccc23)ccc1F)N1CCN(C(=O)C2CC2)CC1 + C=CC(=O)N1CCN(c2nc(OCC3CCCN3C)nc3c2CCN(c2cccc4cccc(C)c24)C3)CC1CC#N .
Response: class 0

Query: Each molecule tested received a call. Report the one for CCNC(=O)CC1N=C(c2ccc(Cl)cc2)c2cc(OC)ccc2-n2c(C)nnc21 (stereo not given) + C=CC(=O)N1CCN(c2nc(=O)n(-c3c(C)ccnc3C(C)C)c3nc(-c4c(O)cccc4F)c(F)cc23)C(C)C1 .
Response: class 0

Query: Each molecule tested received a call. Report the one for Cn1ncnc1[C@H]1c2n[nH]c(=O)c3cc(F)cc(c23)N[C@@H]1c1ccc(F)cc1 + C=CC(=O)N1CCN(c2nc(=O)n(-c3c(C)ccnc3C(C)C)c3nc(-c4c(O)cccc4F)c(F)cc23)C(C)C1 .
Response: class 0

Query: Each molecule tested received a call. Report the one for CC1COCCN1c1cc(-c2ccnn2C)c2ccnc(-c3ccn[nH]3)c2n1 (stereo not given) + C=CC(=O)N1CCN(c2nc(OCC3CCCN3C)nc3c2CCN(c2cccc4cccc(C)c24)C3)CC1CC#N .
Response: class 1

Query: Each molecule tested received a call. Report the one for CC(=O)OC12COC1CC(O)C1(C)C(=O)C(O)C3=C(C)C(OC(=O)C(O)C(NC(=O)OC(C)(C)C)c4ccccc4)CC(O)(C(OC(=O)c4ccccc4)C21)C3(C)C (stereo not given) + C=CC(=O)N1CCN(c2nc(OCC3CCCN3C)nc3c2CCN(c2cccc4cccc(C)c24)C3)CC1CC#N .
Response: class 0
